Tested on: HCT-116
experiment_description: NCI tumour cell line growth inhibition, 48 h
Activity calls are given as the source filed them. No stated cut-off is given here; in the data, active = GI50 up to about 1.1 µM and inactive = higher.
readout: GI50

Solved cases below.
>  <molecule>
O=C1C2Nc3ccccc3SC2C(=O)N1c1ccccc1C(F)(F)F (stereo not given)

>  <GI50>
24.5 µM (inactive)

$$$$
>  <molecule>
COc1ccc2c(c1)NC1(O)c3ccccc3C(=O)C21O (stereo not given)

>  <GI50>
> 100 µM (inactive)

$$$$

Request the reported GI50 associated with CC(N)(/C=C/c1ccccc1)C(=O)O (stereo not given)
> 100 µM (inactive)

Another molecule to check: Nc1ccc(S(=O)(=O)C23CC4CC(CC(C4)C2)C3)cc1
> 100 µM (inactive)

Another molecule to check: Cc1ccc(S(=O)(=O)Nn2c(-c3ccccc3)c(C#N)c(-c3ccc([N+](=O)[O-])cc3)c(C#N)c2=O)cc1
> 100 µM (inactive)

Another molecule to check: CC1CCCCCC(=O)c2c(O)cc(O)cc2CC(=O)O1 (stereo not given)
> 100 µM (inactive)

Another molecule to check: CCC(c1ccc(N(C)C)cc1)C1NC(=S)NC1=O (stereo not given)
47 µM (inactive)

Another molecule to check: N=c1c2c(ncn1N)Oc1c(c(-c3ccccc3)nn1-c1ccccc1)C2c1ccc(Cl)cc1 (stereo not given)
1.49 µM (inactive)

Another molecule to check: CCOc1cc(/C=C2/C(C)=NN(c3cccc(Cl)c3)/C2=N/c2nc3ccccc3s2)ccc1O
24.2 µM (inactive)

Another molecule to check: CC(=O)Nc1ccc(C(=O)NN2C(=O)C(Cl)C2c2cc(Br)ccc2O)cc1 (stereo not given)
3.69 µM (inactive)
